Test system: Human alphaherpesvirus 1
Assay: Inhibition of cell to cell spread of HSV1
Assay type: functional, organism-based, Human herpesvirus 1 strain KOS
Settings: Human alphaherpesvirus 1, KOS321
pIC50: −log10 of the molar value.
Property: pIC50; scope: individual compounds
Test readout: pIC50

1) O=C(COc1ccccc1)N[C@H]1O[C@H](CO)[C@@H](O)[C@H](O)[C@@H]1O[C@H]1O[C@H](CO)[C@@H](O)[C@H](O[C@H]2O[C@H](CO)[C@@H](O)[C@H](O[C@H]3O[C@H](CO)[C@@H](O)[C@H](O[C@H]4O[C@H](CO)[C@@H](O)[C@H](O)[C@@H]4O)[C@@H]3O)[C@@H]2O)[C@@H]1O : 5.30
2) CCCCCCCCO[C@H]1O[C@H](CO)[C@@H](O)[C@H](O)[C@@H]1O[C@H]1O[C@H](CO)[C@@H](O)[C@H](O[C@H]2O[C@H](CO)[C@@H](O)[C@H](O[C@H]3O[C@H](CO)[C@@H](O)[C@H](O[C@H]4O[C@H](CO)[C@@H](O)[C@H](O)[C@@H]4O)[C@@H]3O)[C@@H]2O)[C@@H]1O : 6.40
3) O=C(CCCC[C@@H]1SC[C@@H]2NC(=O)N[C@@H]21)NCCCCCC(=O)N[C@H]1O[C@H](CO)[C@@H](O)[C@H](O)[C@@H]1O[C@H]1O[C@H](CO)[C@@H](O)[C@H](O[C@H]2O[C@H](CO)[C@@H](O)[C@H](O[C@H]3O[C@H](CO)[C@@H](O)[C@H](O[C@H]4O[C@H](CO)[C@@H](O)[C@H](O)[C@@H]4O)[C@@H]3O)[C@@H]2O)[C@@H]1O : 5.52
4) OC[C@H]1O[C@H](O[C@@H]2[C@H](O)[C@@H](O[C@@H]3[C@H](O)[C@@H](O[C@@H]4[C@H](O)[C@@H](O[C@@H]5[C@@H](OCc6ccccc6)O[C@H](CO)[C@@H](O)[C@@H]5O)O[C@H](CO)[C@H]4O)O[C@H](CO)[C@H]3O)O[C@H](CO)[C@H]2O)[C@@H](O)[C@@H](O)[C@@H]1O : 6.00

###

Assay: Area under curve (0-12h) male Sprague-Dawley rat administered with 2.5 mg/kg, iv
Type: ADME, organism-based
Design: time < 12 hr, dose 2.5 mg/kg, route intravenous
Details: in vivo
Test readout: AUC(0-t) at 12 h

1. O=C(CCCC[C@@H]1SC[C@@H]2NC(=O)N[C@@H]21)NCCCCCC(=O)N[C@H]1O[C@H](CO)[C@@H](O)[C@H](O)[C@@H]1O[C@H]1O[C@H](CO)[C@@H](O)[C@H](O[C@H]2O[C@H](CO)[C@@H](O)[C@H](O[C@H]3O[C@H](CO)[C@@H](O)[C@H](O[C@H]4O[C@H](CO)[C@@H](O)[C@H](O)[C@@H]4O)[C@@H]3O)[C@@H]2O)[C@@H]1O : 6500 ng·h/mL
2. CCCCCCCCO[C@H]1O[C@H](CO)[C@@H](O)[C@H](O)[C@@H]1O[C@H]1O[C@H](CO)[C@@H](O)[C@H](O[C@H]2O[C@H](CO)[C@@H](O)[C@H](O[C@H]3O[C@H](CO)[C@@H](O)[C@H](O[C@H]4O[C@H](CO)[C@@H](O)[C@H](O)[C@@H]4O)[C@@H]3O)[C@@H]2O)[C@@H]1O : 29700 ng·h/mL
3. OC[C@H]1O[C@H](O[C@@H]2[C@H](O)[C@@H](O[C@@H]3[C@H](O)[C@@H](O[C@@H]4[C@H](O)[C@@H](O[C@@H]5[C@@H](OCc6ccccc6)O[C@H](CO)[C@@H](O)[C@@H]5O)O[C@H](CO)[C@H]4O)O[C@H](CO)[C@H]3O)O[C@H](CO)[C@H]2O)[C@@H](O)[C@@H](O)[C@@H]1O : 12600 ng·h/mL

###

Property: clearance; scope: individual molecules
Assay: Clearance in male Sprague-Dawley rat administered with 2.5 mg/kg, iv
Assay type: ADME, organism-based
Parameters: dose 2.5 mg/kg, route intravenous
Conditions: in vivo
Test readout: clearance (L/h/kg)

1. CCCCCCCCO[C@H]1O[C@H](CO)[C@@H](O)[C@H](O)[C@@H]1O[C@H]1O[C@H](CO)[C@@H](O)[C@H](O[C@H]2O[C@H](CO)[C@@H](O)[C@H](O[C@H]3O[C@H](CO)[C@@H](O)[C@H](O[C@H]4O[C@H](CO)[C@@H](O)[C@H](O)[C@@H]4O)[C@@H]3O)[C@@H]2O)[C@@H]1O : 0.0836
2. O=C(CCCC[C@@H]1SC[C@@H]2NC(=O)N[C@@H]21)NCCCCCC(=O)N[C@H]1O[C@H](CO)[C@@H](O)[C@H](O)[C@@H]1O[C@H]1O[C@H](CO)[C@@H](O)[C@H](O[C@H]2O[C@H](CO)[C@@H](O)[C@H](O[C@H]3O[C@H](CO)[C@@H](O)[C@H](O[C@H]4O[C@H](CO)[C@@H](O)[C@H](O)[C@@H]4O)[C@@H]3O)[C@@H]2O)[C@@H]1O : 0.38
3. OC[C@H]1O[C@H](O[C@@H]2[C@H](O)[C@@H](O[C@@H]3[C@H](O)[C@@H](O[C@@H]4[C@H](O)[C@@H](O[C@@H]5[C@@H](OCc6ccccc6)O[C@H](CO)[C@@H](O)[C@@H]5O)O[C@H](CO)[C@H]4O)O[C@H](CO)[C@H]3O)O[C@H](CO)[C@H]2O)[C@@H](O)[C@@H](O)[C@@H]1O : 0.199

###

Assay: Volume of distribution in male Sprague-Dawley rat administered with 2.5 mg/kg, iv
Assay type: ADME, organism-based
Parameters: dose 2.5 mg/kg, route intravenous
Details: in vivo, read-out: Vdss
Test readout: Vd

1) O=C(CCCC[C@@H]1SC[C@@H]2NC(=O)N[C@@H]21)NCCCCCC(=O)N[C@H]1O[C@H](CO)[C@@H](O)[C@H](O)[C@@H]1O[C@H]1O[C@H](CO)[C@@H](O)[C@H](O[C@H]2O[C@H](CO)[C@@H](O)[C@H](O[C@H]3O[C@H](CO)[C@@H](O)[C@H](O[C@H]4O[C@H](CO)[C@@H](O)[C@H](O)[C@@H]4O)[C@@H]3O)[C@@H]2O)[C@@H]1O : 0.0551 L
2) OC[C@H]1O[C@H](O[C@@H]2[C@H](O)[C@@H](O[C@@H]3[C@H](O)[C@@H](O[C@@H]4[C@H](O)[C@@H](O[C@@H]5[C@@H](OCc6ccccc6)O[C@H](CO)[C@@H](O)[C@@H]5O)O[C@H](CO)[C@H]4O)O[C@H](CO)[C@H]3O)O[C@H](CO)[C@H]2O)[C@@H](O)[C@@H](O)[C@@H]1O : 0.0384 L
3) CCCCCCCCO[C@H]1O[C@H](CO)[C@@H](O)[C@H](O)[C@@H]1O[C@H]1O[C@H](CO)[C@@H](O)[C@H](O[C@H]2O[C@H](CO)[C@@H](O)[C@H](O[C@H]3O[C@H](CO)[C@@H](O)[C@H](O[C@H]4O[C@H](CO)[C@@H](O)[C@H](O)[C@@H]4O)[C@@H]3O)[C@@H]2O)[C@@H]1O : 0.0229 L
